system: 598228-144-R-J1-PDC complex spheroid viability; assay: Anticancer human tumor 598228-144-R-J1-PDC patient-derived serous endometrial adenocarcinoma cell line growth inhibition [GQUAD]; conditions: second compound 0.1 µM; first compound 3.16 µM; stronger effect = lower value;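 also: spheroids exposed to the agents for one week before reading; percent of vehicle DMSO control viability so 100% = untreated growth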
QUANTITY_KIND: viability, T/C (%)

>>> observed_result("Nc1ccn(C2OC(CO)C(O)C2(F)F)c(=O)n1 (stereo unspecified) + Cc1cnc(CNC(=O)c2c(=O)c3ccc(N4CCCN(C)CC4)nc3n3c2sc2ccccc23)cn1")
40
>>> observed_result("COc1ncnc(C2CC2)c1-c1ncc2cnn(Cc3ccc(-c4nc(C(F)(F)F)cn4C(C)C)cc3)c2n1 + CN(C)c1ccc(Nc2c3ccc(NC(=O)CCN4CCCC4)cc3nc3cc(NC(=O)CCN4CCCC4)ccc23)cc1")
102
>>> observed_result("O=C(c1cc(Cc2n[nH]c(=O)c3ccccc23)ccc1F)N1CCN(C(=O)C2CC2)CC1 + Cc1cnc(CNC(=O)c2c(=O)c3ccc(N4CCCN(C)CC4)nc3n3c2sc2ccccc23)cn1")
63
>>> observed_result("CC(C)n1c(=O)n(C)c2cnc3cc(F)c(-c4ccc(OCCCN5CCCCC5)nc4)cc3c21 + Cc1[nH]c2ccc(F)cc2c1-c1nc2c3cccnc3c3ncccc3c2[nH]1")
91.7
>>> observed_result("CCCS(=O)(=O)Nc1ccc(F)c(C(=O)c2c[nH]c3ncc(-c4ccc(Cl)cc4)cc23)c1F + Cc1cnc(CNC(=O)c2c(=O)c3ccc(N4CCCN(C)CC4)nc3n3c2sc2ccccc23)cn1")
92.2
>>> observed_result("COc1ccc([C@@H](O)c2cc(-c3ncnc4cc(N5CCOCC5)ccc34)c(F)cc2Cl)nn1 + Cc1cnc(CNC(=O)c2c(=O)c3ccc(N4CCCN(C)CC4)nc3n3c2sc2ccccc23)cn1")
43.5
>>> observed_result("C=CC(=O)N1CCN(c2nc(=O)n(-c3c(C)ccnc3C(C)C)c3nc(-c4c(O)cccc4F)c(F)cc23)C(C)C1 (stereo unspecified) + Cc1cnc(CNC(=O)c2c(=O)c3ccc(N4CCCN(C)CC4)nc3n3c2sc2ccccc23)cn1")
86.4
>>> observed_result("C=CCn1c(=O)c2cnc(Nc3ccc(N4CCN(C)CC4)cc3)nc2n1-c1cccc(C(C)(C)O)n1 + Cc1[nH]c2ccc(F)cc2c1-c1nc2c3cccnc3c3ncccc3c2[nH]1")
52.8
>>> observed_result("C#Cc1c(F)ccc2cc(O)cc(-c3ncc4c(N5CC6CCC(C5)N6)nc(OCC56CCCN5CC(F)C6)nc4c3F)c12 (stereo unspecified) + Cc1[nH]c2ccc(F)cc2c1-c1nc2c3cccnc3c3ncccc3c2[nH]1")
143
>>> observed_result("Cc1cccc(N(C)C(=O)C2C(O)CCN2c2nc(C)cc(C(F)(F)F)c2C#N)c1 (stereo unspecified) + CN(C)c1ccc(Nc2c3ccc(NC(=O)CCN4CCCC4)cc3nc3cc(NC(=O)CCN4CCCC4)ccc23)cc1")
103
>>> observed_result("CC1COCCN1c1cc(C2(O)CC3CCC(C2)O3)c2cnn(-c3ccn[nH]3)c2n1 (stereo unspecified) + Cc1cnc(CNC(=O)c2c(=O)c3ccc(N4CCCN(C)CC4)nc3n3c2sc2ccccc23)cn1")
19.8

Cited source for all entries: PubChem BioAssay AID2060506
